From: patent US12378240B2

testedSystem: MEK1 (Homo sapiens (Human))
Sequence (Q02750 whole entry): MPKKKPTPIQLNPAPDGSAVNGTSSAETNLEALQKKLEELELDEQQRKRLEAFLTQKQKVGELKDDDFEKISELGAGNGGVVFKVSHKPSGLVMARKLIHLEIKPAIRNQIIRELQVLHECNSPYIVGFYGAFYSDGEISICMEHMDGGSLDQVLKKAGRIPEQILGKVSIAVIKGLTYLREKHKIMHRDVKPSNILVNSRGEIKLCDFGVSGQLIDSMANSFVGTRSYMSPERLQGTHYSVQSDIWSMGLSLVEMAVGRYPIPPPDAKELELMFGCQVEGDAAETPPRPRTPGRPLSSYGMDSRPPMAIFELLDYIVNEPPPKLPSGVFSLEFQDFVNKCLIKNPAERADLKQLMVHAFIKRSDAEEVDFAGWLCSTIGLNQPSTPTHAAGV
assayProcedure: MEK1 inhibition assay (Z'-LYTE biochemical assay)
setupConditions: MAP2K1 (MEK1)/inactive MAPK1 (ERK2)/Ser/Thr 03 cascade, 10 point titration; read-out: IC50 against MEK1
pIC50: −log10 of the molar value.
Provide the recorded pIC50 for the entries that follow.

For reference, reported pIC50 for O=C(O)Cn1ccc2cncc(Nc3ccc(I)cc3F)c2c1=O stands at < 5.82

For reference, reported pIC50 for O=c1c2c(Nc3ccc(I)cc3F)cncc2ccn1C[C@H](O)CO stands at ≥ 6.82

For reference, reported pIC50 for COC(=O)Cn1ccc2cncc(Nc3ccc(I)cc3F)c2c1=O stands at < 5.82

For reference, reported pIC50 for O=c1c2c(Nc3ccc(I)cc3F)cncc2ccn1C[C@@H](O)CO stands at ≥ 6.82
